procedure_summary: Single-dose two-period crossover bioequivalence study, fasting: plasma pharmacokinetics of lisinopril and amlodipine (LC-MS/MS, NCA);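 further: single tablet dose 10 mg/5 mg fixed combination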
condition_details: human, plasma, po, Plasma concentration of amlodipine, Mean, reference (R) tablets, nominal time 2 h, mean of subjects
measure_name: concentration at 2 h (ng/mL)
Give the quantity in ng/mL, number only.

Look up concentration at 2 h: CCOC(=O)C1=C(COCCN)NC(C)=C(C(=O)OC)C1c1ccccc1Cl (stereo not shown)
1.24

----------
procedure_summary: Single-dose two-period crossover bioequivalence study, fasting: plasma pharmacokinetics of lisinopril and amlodipine (LC-MS/MS, NCA);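 further: single tablet dose 10 mg/5 mg fixed combination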
condition_details: human, plasma, po, Plasma concentration of amlodipine, Max, reference (R) tablets, nominal time 1 h, maximum over subjects
measure_name: concentration at 1 h (ng/mL)
Give just the number in ng/mL; leave the unit off.

What value of measured concentration at 1 h is listed for CCOC(=O)C1=C(COCCN)NC(C)=C(C(=O)OC)C1c1ccccc1Cl (stereo not shown) [amlodipine] ?
2.24

----------
procedure_summary: Single-dose two-period crossover bioequivalence study, fasting: plasma pharmacokinetics of lisinopril and amlodipine (LC-MS/MS, NCA);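 further: single tablet dose 10 mg/5 mg fixed combination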
condition_details: human, plasma, po, Plasma concentration of amlodipine, Min, reference (R) tablets, nominal time 24 h, minimum over subjects
measure_name: concentration at 24 h (ng/mL)
Enter your answer as a number in ng/mL; do not include the unit.

// query concentration at 24 h value for entry CCOC(=O)C1=C(COCCN)NC(C)=C(C(=O)OC)C1c1ccccc1Cl (stereo not shown)
0.603

----------
procedure_summary: Single-dose two-period crossover bioequivalence study, fed (high-fat breakfast): plasma pharmacokinetics of lisinopril and amlodipine (LC-MS/MS, NCA)
condition_details: human, in vivo, po, Plasma concentration of lisinopril, individual subjects, nominal time 12 h, reference (R) tablets
measure_name: concentration at 12 h (ng/mL)
Give the value in ng/mL but do not write ng/mL after it.

Which value of concentration at 12 h has been reported for NCCCC[C@H](N[C@@H](CCc1ccccc1)C(=O)O)C(=O)N1CCC[C@H]1C(=O)O [lisinopril] in the records?
13.3

----------
procedure_summary: Single-dose two-period crossover bioequivalence study, fed (high-fat breakfast): plasma pharmacokinetics of lisinopril and amlodipine (LC-MS/MS, NCA)
condition_details: human, plasma, po, Plasma concentration of lisinopril, Mean, mean of 37 subjects, nominal time 1 h, reference (R) tablets
measure_name: concentration at 1 h (ng/mL)
Supply the numeric figure in ng/mL, leaving out any unit text.

Quick one: concentration at 1 h of NCCCC[C@H](N[C@@H](CCc1ccccc1)C(=O)O)C(=O)N1CCC[C@H]1C(=O)O ?
0.795

----------
procedure_summary: Single-dose two-period crossover bioequivalence study, fasting: plasma pharmacokinetics of lisinopril and amlodipine (LC-MS/MS, NCA);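 further: single tablet dose 10 mg/5 mg fixed combination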
condition_details: human, plasma, po, Plasma concentration of amlodipine, Mean, reference (R) tablets, nominal time 12 h, mean of subjects
measure_name: concentration at 12 h (ng/mL)
Report only the number, with the unit ng/mL understood.

// returns reported concentration at 12 h for input CCOC(=O)C1=C(COCCN)NC(C)=C(C(=O)OC)C1c1ccccc1Cl (stereo not shown)
1.74

----------
procedure_summary: Single-dose two-period crossover bioequivalence study, fed (high-fat breakfast): plasma pharmacokinetics of lisinopril and amlodipine (LC-MS/MS, NCA)
condition_details: human, plasma, po, Plasma concentration of lisinopril, Mean, mean of 37 subjects, nominal time 8 h, reference (R) tablets
measure_name: concentration at 8 h (ng/mL)
Give the value in ng/mL but do not write ng/mL after it.

Any idea what its concentration at 8 h is? The compound is NCCCC[C@H](N[C@@H](CCc1ccccc1)C(=O)O)C(=O)N1CCC[C@H]1C(=O)O
14

----------
procedure_summary: Single-dose two-period crossover bioequivalence study, fasting: plasma pharmacokinetics of lisinopril and amlodipine (LC-MS/MS, NCA);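 further: single tablet dose 10 mg/5 mg fixed combination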
condition_details: human, plasma, po, Plasma concentration of amlodipine, Min, reference (R) tablets, nominal time 10 h, minimum over subjects
measure_name: concentration at 10 h (ng/mL)
Write the answer as a number in ng/mL, unit excluded.

What value of concentration at 10 h has been recorded for this entry: CCOC(=O)C1=C(COCCN)NC(C)=C(C(=O)OC)C1c1ccccc1Cl (stereo not shown)
0.806

----------
procedure_summary: Single-dose two-period crossover bioequivalence study, fed (high-fat breakfast): plasma pharmacokinetics of lisinopril and amlodipine (LC-MS/MS, NCA)
condition_details: human, plasma, po, Plasma concentration of lisinopril, Mean, mean of 37 subjects, nominal time 2 h, reference (R) tablets
measure_name: concentration at 2 h (ng/mL)
# number only, unit ng/mL dropped from output

Which value of concentration at 2 h has been reported for NCCCC[C@H](N[C@@H](CCc1ccccc1)C(=O)O)C(=O)N1CCC[C@H]1C(=O)O in the records?
2.85

----------
procedure_summary: Single-dose two-period crossover bioequivalence study, fed (high-fat breakfast): plasma pharmacokinetics of lisinopril and amlodipine (LC-MS/MS, NCA)
condition_details: human, plasma, po, Plasma concentration of lisinopril, Mean, mean of 37 subjects, nominal time 12 h, reference (R) tablets
measure_name: concentration at 12 h (ng/mL)
Numeric only. Scale: ng/mL

Which concentration at 12 h is reported for this molecule? NCCCC[C@H](N[C@@H](CCc1ccccc1)C(=O)O)C(=O)N1CCC[C@H]1C(=O)O
10.8

----------
procedure_summary: Single-dose two-period crossover bioequivalence study, fed (high-fat breakfast): plasma pharmacokinetics of lisinopril and amlodipine (LC-MS/MS, NCA)
condition_details: human, plasma, po, Plasma concentration of lisinopril, Min, minimum among subjects, nominal time 144 h, reference (R) tablets
measure_name: concentration at 144 h (ng/mL)
Express the result in ng/mL but write the number alone.

Reported concentration at 144 h for NCCCC[C@H](N[C@@H](CCc1ccccc1)C(=O)O)C(=O)N1CCC[C@H]1C(=O)O [lisinopril] : what is it?
0

----------
procedure_summary: Single-dose two-period crossover bioequivalence study, fasting: plasma pharmacokinetics of lisinopril and amlodipine (LC-MS/MS, NCA);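 further: single tablet dose 10 mg/5 mg fixed combination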
condition_details: human, plasma, po, Plasma concentration of amlodipine, Min, reference (R) tablets, nominal time 5 h, minimum over subjects
measure_name: concentration at 5 h
Please provide the amount together with its unit, number first.

For CCOC(=O)C1=C(COCCN)NC(C)=C(C(=O)OC)C1c1ccccc1Cl (stereo not shown) , what is its reported concentration at 5 h?
1.26 ng/mL
